Biological target: human prostaglandin E2 (subtype EP2) receptor (Homo sapiens, UniProt P43116)
Construct: host or cells: cells in a cell culture plate
Sequence (P43116 whole entry): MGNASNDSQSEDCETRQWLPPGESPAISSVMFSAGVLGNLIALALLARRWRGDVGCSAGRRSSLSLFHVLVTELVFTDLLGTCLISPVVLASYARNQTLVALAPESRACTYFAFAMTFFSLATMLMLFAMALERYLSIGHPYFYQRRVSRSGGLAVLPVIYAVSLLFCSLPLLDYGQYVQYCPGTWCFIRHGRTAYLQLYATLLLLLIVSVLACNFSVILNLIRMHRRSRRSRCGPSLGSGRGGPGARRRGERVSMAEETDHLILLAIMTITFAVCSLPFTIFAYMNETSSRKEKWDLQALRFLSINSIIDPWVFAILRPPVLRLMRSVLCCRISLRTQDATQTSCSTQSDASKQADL
Test: cAMP antagonism test (HTRF cAMP detection, PGE2 stimulation)
Type: cell-based
Conditions: in presence of PGE2
parameter: IC50 (µM)
One number for each entry, in µM.

Worked examples follow.
CC(=O)Nc1cccc(-c2cc3ncnc(NCc4ccc5c(c4)OCO5)c3s2)c1 | 0.46
c1cnc2ccc(-c3cc4ncnc(NCc5ccc6c(c5)OCO6)c4s3)cc2c1 | 0.61

Now let's try a different one.
// query IC50 value for entry COc1ccc(CNc2ncnc3cc(-c4cccc(NC(C)=O)c4)sc23)cc1
0.31

Values were extracted from patent US20090042878A1.
